assay: Phase 1 clinical study, pharmacokinetics of granisetron after intravenous and intranasal administration; format: in vivo, human; details: human, plasma, 10 ug/kg; intravenous 10 μg/kg (Kytril), healthy male volunteers, mean, N=8
readout_label: clearance (mL/min)
One number for each entry, in mL/min.

Give me measured clearance, please, for this compound: CN1C2CCCC1CC(NC(=O)c1nn(C)c3ccccc13)C2 (stereo not shown)
158

====

experiment: Phase 1 clinical study, pharmacokinetics of granisetron after intravenous and intranasal administration; format: in vivo, human; settings: human, plasma, inhaled or intranasal; intranasal 1.0 mg (TRG capsule, single nostril), healthy male volunteers, mean; read-out: T1/2 (converted)
readout_label: half-life (h)
Numbers only, in h.

Using the record for CN1C2CCCC1CC(NC(=O)c1nn(C)c3ccccc13)C2 (stereo not shown) , state its measured half-life.
9.52
